system: human recombinant adrenergic α2B receptor (Homo sapiens)
Construct: expressed in transfected cells; host or cells: CHO-K1 cells
Sequence (P18089 whole entry): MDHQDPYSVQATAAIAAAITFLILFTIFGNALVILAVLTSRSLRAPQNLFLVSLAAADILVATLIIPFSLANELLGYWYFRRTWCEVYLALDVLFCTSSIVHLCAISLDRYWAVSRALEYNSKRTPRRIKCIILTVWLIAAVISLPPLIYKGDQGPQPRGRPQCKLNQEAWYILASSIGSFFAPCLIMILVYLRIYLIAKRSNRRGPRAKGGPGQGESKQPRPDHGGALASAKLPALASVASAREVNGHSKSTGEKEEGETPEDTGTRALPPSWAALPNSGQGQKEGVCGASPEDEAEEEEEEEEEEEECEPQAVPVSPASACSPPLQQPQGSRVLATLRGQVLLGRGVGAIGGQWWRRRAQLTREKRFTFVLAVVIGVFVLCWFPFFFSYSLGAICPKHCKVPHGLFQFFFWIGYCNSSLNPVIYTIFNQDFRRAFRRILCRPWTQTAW
assay-notes: Adrenergic α2B radioligand binding ([3H]Rauwolscine)
Design: concentration or dose not given beside the values
conditions: percent inhibition of specific binding
observed-property: Inhibition of ligand binding, Adren. alpha2B (%)
Give bare numbers, in %.

sample-smiles: Cc1cnc(CCn2c3c(c4cc(Cl)ccc42)CN(C)CC3)cn1
unit-tag: %
assay-value: 104

sample-smiles: Cc1ccc2c(c1)c1c(n2CCc2cnccn2)CCN(C)C1
unit-tag: %
assay-value: 90

sample-smiles: CCc1ccc2c(c1)c1c(n2CCc2ccc(C)nc2)CCN(C)C1
unit-tag: %
assay-value: 106

sample-smiles: CN1CCc2c(c3cc(Cl)ccc3n2CCc2ccccn2)C1
unit-tag: %
assay-value: 102

Field: next compound
// Inhibition of ligand binding, Adren. alpha2B lookup, key: `Cc1ccc2c(c1)c1c(n2Cc2ccccc2)CCN(C)C1`
3

----------
system: human recombinant adrenergic α1D receptor (Homo sapiens, UniProt P25100)
Construct: expressed in transfected cells; host or cells: HEK-293 cells
Sequence (P25100 1-572): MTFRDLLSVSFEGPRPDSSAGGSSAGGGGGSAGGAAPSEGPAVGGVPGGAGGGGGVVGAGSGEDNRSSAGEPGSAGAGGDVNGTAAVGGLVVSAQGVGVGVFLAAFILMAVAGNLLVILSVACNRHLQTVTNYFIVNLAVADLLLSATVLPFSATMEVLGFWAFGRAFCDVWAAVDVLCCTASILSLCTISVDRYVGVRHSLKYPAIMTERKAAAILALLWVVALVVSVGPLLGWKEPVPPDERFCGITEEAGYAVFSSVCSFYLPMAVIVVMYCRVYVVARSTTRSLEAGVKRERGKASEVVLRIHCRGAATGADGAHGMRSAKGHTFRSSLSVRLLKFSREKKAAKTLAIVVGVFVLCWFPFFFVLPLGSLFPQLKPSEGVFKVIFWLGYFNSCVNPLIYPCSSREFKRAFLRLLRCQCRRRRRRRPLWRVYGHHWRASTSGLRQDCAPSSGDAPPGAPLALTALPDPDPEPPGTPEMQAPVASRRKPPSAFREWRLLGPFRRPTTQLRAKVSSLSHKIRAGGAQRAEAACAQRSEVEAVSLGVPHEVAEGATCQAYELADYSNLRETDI
assay-notes: Adrenergic α1D radioligand binding ([3H]Prozosin)
conditions: compounds screened at 1 μM; read-out: Inhibition of ligand binding, Adren. alpha1D (percent inhibition of specific binding)
observed-property: inhibition at 1 µM (%)
Numbers only, in %.

Some solved entries appear below for comparison.
sample-smiles: CN1CCc2c(c3cc(Br)ccc3n2CC(=O)N2CCCCC2)C1
assay-value: 26

sample-smiles: CN1CCc2c(c3ncccc3n2CCc2ccccn2)C1
assay-value: 10

sample-smiles: Cc1ccc(CCn2c3c(c4cc(Br)ccc42)CN(C)CC3)cn1
assay-value: 90

Quick batch: inhibition at 1 µM for everything below.
1. CN1CCc2c(c3cc(I)ccc3n2CC(=O)N2CCCCC2)C1
2. CN1CCc2c(c3cc(Cl)ccc3n2CCc2noc(-c3ccccc3)n2)C1

22
84

----------
System: rat brain mitochondria
assay-notes: Ca2+-induced swelling of mitochondria (MPT pore opening)
Format: biochemical, Wistar rats
conditions: rat brain mitochondria, 100 μM compound
Record form. Attribute: A540 increase in mitochondrial suspension after addition of 100 μM of compound. Fill in for each entry.
Give bare numbers, in rel.units.

Some solved entries appear below for comparison.
sample-smiles: CN1CCc2c(c3cc(Cl)ccc3n2CCc2noc(-c3ccccc3)n2)C1
assay-value: 28
//
sample-smiles: CN1CCc2c(c3ccccc3n2CCc2noc(-c3ccccc3)n2)C1
assay-value: 10
//
sample-smiles: CN1CCc2c(c3cc(Cl)ccc3n2CCc2nc(-c3ccccc3)cs2)C1
assay-value: 25

Field: next compound
// A540 increase in mitochondrial suspension after addition of 100 μM of compound lookup, key: `CN1CCc2c(c3ccccc3n2CCc2nc(-c3ccncc3)cs2)C1`
1

----------
system: human recombinant histamine H2 receptor (Homo sapiens)
Construct: expressed in transfected cells; host or cells: CHO-K1 cells
assay-notes: Histamine H2 radioligand binding ([125I]Aminopotentidine)
conditions: percent inhibition of specific binding; screened at 1 μM; read-out: Inhibition of ligand binding, Hist. H2
Experimental: Non-specific binding was estimated in the presence of 3 μM Tiotidine. […] Biochemical assay results are presented as the percent inhibition of specific binding in Table 5. Non-specific binding was estimated in the presence of 3 μM Tiotidine. […] Compounds were screened at 1 μM, using 1% DMSO as vehicle. Biochemical assay results are presented as the percent inhibition of specific binding in Table 6.
Record form. Attribute: inhibition at 1 µM. Fill in for each entry.
One number for each entry, in %.

Some solved entries appear below for comparison.
molecule: Cc1ccc2c(c1)c1c(n2Cc2ccccc2)CCN(C)C1
unit-tag: %
inhibition at 1 µM: 45
//
molecule: Cc1ccc(CCn2c3c(c4cc(Cl)c(F)cc42)CN(C)CC3)cn1
unit-tag: %
inhibition at 1 µM: 88
//
molecule: Cc1ccc2c(c1)c1c(n2CCc2ccccn2)CCN(C)C1
unit-tag: %
inhibition at 1 µM: 45

Quick batch: inhibition at 1 µM for everything below.
1. Cc1ccc2c(c1)c1c(n2CCc2cnc(C)cn2)CCN(C)C1
2. Cc1ccc2c(c1)c1c(n2CCc2ccc(C(=O)O)nc2)CCNC1
3. CCN1CCc2c(c3cc(C)ccc3n2CCc2ccccc2)C1
4. OC1CCC(N2CCc3c(c4cc(Cl)ccc4n3CCc3ccc(C(F)(F)F)nc3)C2)C1 (stereo not drawn)
5. COc1ccc(CCn2c3c(c4cc(Cl)ccc42)CN(C)CC3)cc1

[20, -8, 53, -2, 101]

// inhibition at 1 µM lookup, key: `CN1CCc2c(c3cc(Cl)cc(F)c3n2CCc2ccc(C(F)(F)F)nc2)C1`
78

----------
system: Serotonin (5-Hydroxytryptamine) 5-HT7 (Homo sapiens, UniProt P34969)
Construct: expressed in transfected cells; host or cells: CHO cells
Sequence (P34969 whole entry): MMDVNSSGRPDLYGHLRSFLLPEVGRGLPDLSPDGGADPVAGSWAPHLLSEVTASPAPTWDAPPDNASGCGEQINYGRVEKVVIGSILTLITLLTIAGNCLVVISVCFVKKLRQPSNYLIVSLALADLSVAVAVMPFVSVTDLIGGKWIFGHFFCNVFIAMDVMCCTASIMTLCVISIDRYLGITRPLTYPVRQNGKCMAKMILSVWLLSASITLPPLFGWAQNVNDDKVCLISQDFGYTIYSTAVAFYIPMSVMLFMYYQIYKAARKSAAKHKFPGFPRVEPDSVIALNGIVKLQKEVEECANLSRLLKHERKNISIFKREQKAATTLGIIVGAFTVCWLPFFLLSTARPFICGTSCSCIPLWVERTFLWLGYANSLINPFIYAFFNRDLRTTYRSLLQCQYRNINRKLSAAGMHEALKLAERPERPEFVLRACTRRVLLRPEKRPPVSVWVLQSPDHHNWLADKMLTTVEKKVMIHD
assay-notes: Serotonin 5-HT7 radioligand binding ([3H]LSD)
Set-up: concentration or dose not given beside the values
conditions: percent inhibition of specific binding
observed-property: Inhibition of ligand binding, Ser. 5-HT7 (%)
Numbers only, in %.

molecule: Cc1ccc2c(c1)c1c(n2CCN2CCCC2)CCN(C)C1
Inhibition of ligand binding, Ser. 5-HT7, %: 36

molecule: CN1CCc2c(c3cc(Cl)ccc3n2CCN2CCOCC2)C1
Inhibition of ligand binding, Ser. 5-HT7, %: 57

molecule: CC(Cn1c2c(c3ccccc31)CN(C)CC2)c1ccc(F)cc1 (stereo not drawn)
Inhibition of ligand binding, Ser. 5-HT7, %: 98

Quick batch: Inhibition of ligand binding, Ser. 5-HT7 for everything below.
1. Cc1ccc2c(c1)c1c(n2CCc2ccccc2)CCN(C(=O)OCC(Cl)(Cl)Cl)C1
2. Cc1ccc2c(c1)c1c(n2CCc2ccc(C(F)(F)F)nc2)CCN(C)C1

1. −8
2. 103

Quick batch: Inhibition of ligand binding, Ser. 5-HT7 for everything below.
1. Cc1ccc(CCn2c3c(c4cc(C(=O)O)ccc42)CNCC3)cn1
2. Cc1ccc2c(c1)c1c(n2CCc2ccc(Cl)cc2)CCN(C)C1

1: −3; 2: 101

Quick batch: Inhibition of ligand binding, Ser. 5-HT7 for everything below.
1. Cc1ccc2c(c1)c1c(n2CCc2ccc(F)cc2)CCN(C)C1
2. CCN1CCc2c(c3cc(C)ccc3n2CCc2ccccn2)C1

[91, 94]

----------
system: human recombinant histamine H2 receptor (Homo sapiens, UniProt P25021)
Construct: expressed in transfected cells; host or cells: CHO-K1 cells
Sequence (P25021 whole entry): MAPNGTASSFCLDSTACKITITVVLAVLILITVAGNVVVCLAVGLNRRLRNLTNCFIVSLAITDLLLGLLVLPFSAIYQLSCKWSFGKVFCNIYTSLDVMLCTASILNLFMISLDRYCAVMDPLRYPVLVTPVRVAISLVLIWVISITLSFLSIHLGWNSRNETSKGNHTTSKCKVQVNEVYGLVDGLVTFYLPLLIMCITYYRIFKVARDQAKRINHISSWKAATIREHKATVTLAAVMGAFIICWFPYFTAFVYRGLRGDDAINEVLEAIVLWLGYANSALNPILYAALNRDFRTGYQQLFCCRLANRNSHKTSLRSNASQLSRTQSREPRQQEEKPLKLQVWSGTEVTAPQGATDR
assay-notes: Histamine H2 radioligand binding ([125I]Aminopotentidine)
conditions: 0.1 μM compound; 0.1 nM [125I]Aminopotentidine; read-out: Histamine Binding H2, percent inhibition of specific binding
Record form. Attribute: inhibition at 0.1 µM. Fill in for each entry.
Give bare numbers, in %.

sample-smiles: CN1CCc2c(c3cc(Cl)ccc3n2CCc2ccccc2)C1
inhibition at 0.1 µM (%): 41
--
sample-smiles: Cc1ccc2c(c1)c1c(n2CCc2ccc(F)cc2)CCN(C)C1
inhibition at 0.1 µM (%): 41

Quick batch: inhibition at 0.1 µM for everything below.
1. Cc1ccc(CCn2c3c(c4cc(C)ccc42)CN(C)CC3)cc1
2. Cc1ccc(CCn2c3c(c4ccccc42)CN(C)CC3)cc1
3. Cc1ccc2c(c1)c1c(n2CCc2ccccc2)CCN(C)C1
4. FC(F)(F)c1ccc2c(c1)c1c(n2CCc2noc(-c3ccccc3)n2)CCN(C2CC2)C1
5. CN1CCc2c(c3ccccc3n2CCc2ccccc2)C1

[54, 33, 33, 89, 34]

----------
system: human recombinant serotonin (5-Hydroxytryptamine) 5-HT2C receptor (Homo sapiens)
Construct: expressed in transfected cells; host or cells: CHO-K1 cells
Sequence (P28335 33-458): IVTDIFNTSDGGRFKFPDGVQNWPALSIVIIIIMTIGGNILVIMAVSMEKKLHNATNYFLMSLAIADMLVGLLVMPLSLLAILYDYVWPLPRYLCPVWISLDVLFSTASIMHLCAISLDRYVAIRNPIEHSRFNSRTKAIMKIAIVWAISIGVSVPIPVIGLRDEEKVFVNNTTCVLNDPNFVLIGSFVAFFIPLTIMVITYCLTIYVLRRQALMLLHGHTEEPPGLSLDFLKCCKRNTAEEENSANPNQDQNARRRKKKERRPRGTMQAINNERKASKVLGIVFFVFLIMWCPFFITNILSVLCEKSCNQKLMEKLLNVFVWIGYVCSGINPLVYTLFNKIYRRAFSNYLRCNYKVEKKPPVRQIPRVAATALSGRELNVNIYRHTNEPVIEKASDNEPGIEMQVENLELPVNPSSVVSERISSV
assay-notes: Serotonin 5-HT2C radioligand binding ([3H]Mesulergine)
conditions: percent inhibition of specific binding
Assign Condition met to entries whose Inhibition of ligand binding, Ser. 5-HT2C meets or exceeds 90%; assign Condition not met to the rest.

Reported Inhibition of ligand binding, Ser. 5-HT2C at or above 90%? COc1ccc(CCn2c3c(c4cc(C)ccc42)CN(C)CC3)cc1 [Compound 247]
Condition met
